- Test system: PF3D7_0420300 AP2 domain 1 (GST-tagged)
- assay-notes: gcPBM binding intensity (ln(normalized median fluorescence intensity)); higher = stronger DNA binding
Whole data set: some 25,000 sequences, median “ln(normalized median fluorescence intensity)” near 9.3, cut for the highest 2% near 10. The full list was thinned out, with the highest values kept by preference.
quantity-kind: gcPBM binding intensity (ln)

In [3]: df
Out[3]:
                           primary_sequence                            target_system                 quantity_kind  result
0  TAGAATAATCTATAAACACACAAACCCAACAAAAGA [CACACA_site6132]  PF3D7_0420300 AP2 domain 1 (GST-tagged)  gcPBM binding intensity (ln)    9.86

Q: May I ask what gcPBM binding intensity (ln) has been recorded for TACACCAAAAAAAAACGTACAAAATCCCACCCAGAC [XGTACX_site4622] ?
A: 10.6

Q: Same question, AGGAATATCGAAAACTGTACTTGTATGTTTCATAAA [XGTACX_site6143] this time
A: 9.02

Q: Same question, TGAGATAACAAAAGTTGTACTTTTTTTTTTTTTTTT [XGTACX_site3004] this time
A: 8.89

====

- Test system: PF3D7_0420300 AP2 domain 1 (GST-tagged)
- assay-notes: gcPBM binding intensity (ln(normalized median fluorescence intensity)); higher = stronger DNA binding
The full ranking holds about 25,000 sequences; the median of “ln(normalized median fluorescence intensity)” is about 9.3, and the highest 2% start at about 10. Many of the other results were omitted from the sample, so the highest values are more common in it than they were.
quantity-kind: gcPBM binding intensity (ln)
// keep it numeric: no unit symbol after the value

>>> print(df.to_string())
                           primary_sequence  quantitative_result
0  TATACACATATATAAACACACAAAAAAAAAAAAAAA [CACACA_site7041]                 9.38
1  TGTTGTAAATTAAAGACATGCACGTGAGAAAATATA [TGCATGCA_site285]                 9.51
2  GTAAGAAACAGACACACACACATATATATATATATA [CACACA_site794]                 9.79
3  ATTCACTAAAAAATTGCATGCAATAAATTTTTTTTT [TGCATGCA_site962]                 8.91
4  AAACTTGTAAGAAACACACACACACCCATATATATA [CACACA_site797]                 10.1

Read the next record carefully.
Q: gcPBM binding intensity (ln) of TATATATATATTTTAACACACACATATATATATTTA [CACACA_site8892] on PF3D7_0420300 AP2 domain 1 (GST-tagged)?
A: 9.63

====

- Tested on: PF3D7_0420300 AP2 domain 1 (GST-tagged)
- assay-notes: gcPBM binding intensity (ln(normalized median fluorescence intensity)); higher = stronger DNA binding
Over roughly 25,000 sequences, “ln(normalized median fluorescence intensity)” has its median near 9.3; the highest 2% begin near 10. What follows is part of a selection rich in the highest values, with near analogues and random picks from the rest.
quantity-kind: gcPBM binding intensity (ln)
// keep it numeric: no unit symbol after the value

>>> df
                           primary_sequence  quantitative_result
0  ATATATATATATATATGTACATATTCACTTATATTT [XGTACX_site5324]                 9.18

Q: gcPBM binding intensity (ln) of TGTTACATAAAATGCACACTTTCAAATATGCTAATA [CACACA_site2925] on PF3D7_0420300 AP2 domain 1 (GST-tagged)?
A: 9.05

Q: Same question, TAAATATCAAGACACACACACAAAAGTGAATAAATA [CACACA_site7723] this time
A: 9.9

Q: Same question, TACGCTCCCAGACACACACACACACCGATATAATAT [CACACA_site8098] this time
A: 10.3

Q: Same question, TACAAACACCCATATACACACAAAAAAAAAATAAAA [CACACA_site5421] this time
A: 9.55

Q: Same question, CGCGCCCAGAAACACACACACACACCGATATATATA [CACACA_site5250] this time
A: 10.3

Q: Same question, ACCTTTGATATATACACACACATAAAAAAAATATAT [CACACA_site6952] this time
A: 9.93
